- Tested on: 786-0 renal
- Procedure summary: NCI-60 one-dose screen, 48 h
- Stated conditions: 10 µM unless noted
- Procedure: Cells are grown in 96 well plates and exposed to the test compound for 48 hours. Compounds are tested at a single concentration, which is 10^-5 M for most compounds. The reported endpoint is percent growth (GI% or GIPRCNT), where numbers from 0 - 100% represent growth inhibition, and numbers from -100% - 0 represent cell death. For example, a value of 40 represents 60% growth inhibition. A value of 0 means no net growth occurred over the course of the experiment. […]
The panel holds about 83,000 compounds, 20% with a hit somewhere; the sample as a whole holds those more often. Active and inactive are the calls of the source. How the source made its calls: active means growth percent below 10; inactive means the rest.
Your response should consist of one outcome taken from t for active, f for inactive

Previously resolved entries follow.
Cc1ccc([C@H]2C(C(=O)c3ccc(Cl)cc3)C3(N[C@@H]2c2ccccc2)C(=O)Nc2ccc(Cl)cc23)cc1 (stereo partly drawn) : f
Cc1cccc(Nc2nc3ccccc3nc2/C=C/c2ccc(F)cc2)c1 : f

Which outcome was entered for the compound C=C1CC[C@@H]2[C@]3(C)COC(c4ccco4)O[C@@H]3CC[C@@]2(C)[C@@H]1C/C=C1/C(=O)OCC1OC(C)=O (stereo partly drawn) in this test?
t

* * *

- Test system: TK-10 renal
- Procedure summary: NCI-60 one-dose screen, 48 h (100 = growth as untreated, 0 = no growth, -100 = all killed)
- Stated conditions: 10 µM unless noted
The panel holds about 83,000 compounds, 20% with a hit somewhere; the sample as a whole holds those more often.
Value kind: growth (%)
Numbers only, in %.

Study these solved cases before continuing.
CC(C)c1sc(NC(=O)c2cc(NC(=O)c3cc(NC(=O)c4cscn4)cn3C)cn2C)nc1C(=O)NCCCN(C)C : 85.3
C/C(=N\Nc1ccc(S(N)(=O)=O)cc1)c1ccc(N=Nc2c(Nc3ccccc3)[nH][nH]c2=O)cc1 : 71.9
CC12CC[C@@H]3[C@]4(C)COC(c5cn[nH]c5-c5ccc(Br)cc5)O[C@@H]4CC[C@@]3(C)[C@@H]1CC(C1=CCOC1=O)O2 (stereo partly drawn) : 54.6
CN(C)c1nc(NCCNS(=O)(=O)c2ccc(C3=Nc4c(N)nc(N)nc4NC(c4ccccc4)C3)cc2)nc(Nc2ccc(F)cc2)n1 (stereo not drawn) : 65
O=C(c1ccccc1)c1ccc2nc(-c3ccc(F)cc3)[nH]c2c1 : 104

Hello, I would appreciate it if you could give growth for each entry below.
1. CN(C)CCn1c2ccccc2c2nc3cc4ccccc4cc3nc21
2. C=C1CC[C@@H]2[C@]3(C)COC(c4cn[nH]c4-c4ccc(C)cc4)O[C@@H]3CC[C@@]2(C)[C@@H]1C/C=C1/C(=O)OCC1O (stereo partly drawn)
3. CC1(C)CC[C@]2(C(=O)O)CC[C@]3(C)C(=CCC4[C@@]5(C)C[C@@H](O)[C@@H]6OC(c7ccccc7F)OC[C@@]6(C)C5CC[C@]43C)C2C1 (stereo partly drawn)
4. CN(C)c1ccnc(NCCCSC(c2ccccc2)(c2ccccc2)c2ccccc2)c1
5. CCN(CC)c1ccnc(CNCCSC(c2ccccc2)(c2ccccc2)c2ccc(OC)cc2)c1
6. O=C(O)c1ccc(-c2ccc(/C=N/NC(=O)c3[nH]c4ccc(Br)cc4c3-c3ccccc3)o2)cc1
7. COc1ccc2[nH]cc(-c3nc(N)nnc3-c3cn(C)c4ncccc34)c2c1
8. COc1cc2c(c(OC)c1OC)C(=O)CC(c1cccc(NC(=O)[C@@H](N)CC(C)C)c1)O2 (stereo partly drawn)

1: 53; 2: 49; 3: 7.15; 4: 74.4; 5: 1.59; 6: 41.2; 7: 93.1; 8: 115

Provide each entry's growth from the list below.
1. C=C1CCC2C3(C)COC(c4ccccc4F)OC3CCC2(C)C1CC(O)C1=CCOC1=O (stereo not drawn)
2. CCCCCCCCc1ccc(C(=O)Nc2ccc(C)cc2C(=O)O)cc1C
3. COc1ccc(-c2ccc(SCC(=O)NCCc3ccc(S(N)(=O)=O)cc3)nn2)cc1
4. O=C(/C=C/Nc1ccc2oc(=O)ccc2c1)c1cc2cc(Br)ccc2oc1=O
5. CC(=O)OC[C@@]1(C)C2CC[C@]3(C)C(CC=C4C5CC(C)(C)CC[C@]5(C(=O)Nc5ccc(F)cc5)CC[C@]43C)[C@@]2(C)C[C@@H](OC(C)=O)[C@@H]1OC(C)=O (stereo partly drawn)
6. CC1=C(C(=O)c2ccccc2)C(c2cccc(Cl)c2Cl)n2c(nc3ccccc32)N1 (stereo not drawn)
7. Cc1occc1C(=O)NN1C(=O)/C(=C/C=C/c2ccc([N+](=O)[O-])o2)SC1=S
8. Cc1ccc(C(=O)NN2C(=O)/C(=C/C=C/c3ccc([N+](=O)[O-])o3)SC2=S)cc1

107
102
87.9
124
56.5
102
-49.7
-98.3

Take each entry in turn and give its growth.
1. CC(C)CSc1nc(NCCc2c[nH]c3ccccc23)c(C#N)c(-c2ccc(F)cc2)n1
2. CC1(C)CC[C@]2(C(=O)Nc3ccccc3)CC[C@]3(C)C(=CCC4[C@@]5(C)C[C@@H](O)[C@H](O)[C@@](C)(CO)C5CC[C@]43C)C2C1 (stereo partly drawn)
3. CCN(CC)c1ccc(/C=N/Nc2nc(-c3ccc(C)cc3)cs2)c(O)c1
4. CNC(=O)c1cccc(NC(=O)c2ccc3c(c2)nnn3/C(C#N)=C/c2ccccn2)c1
5. COC(=O)/C=C/c1cccc2c1C(=O)NC(C)(c1cc3ccccc3oc1=O)N2 (stereo not drawn)

92.4
86.7
86.9
-25.4
49

Look at each compound and report its growth.
1. O=C(C1=CNC(=S)NC1c1ccc(O)cc1)c1cc2ccccc2oc1=O (stereo not drawn)
2. O=c1onc(-c2cc3ccccc3nc2Cl)n1-c1cccc2ccccc12

130
78.6
